target: UniProt Q8ILY1; experiment: Fluorescence-based high-throughput DNA polymerase assay (molecular beacon), primary screen and dose-response; assay type: biochemical; details: DRC-1; 90'; conc 40
Sequence (Q8ILY1 entry or part of it): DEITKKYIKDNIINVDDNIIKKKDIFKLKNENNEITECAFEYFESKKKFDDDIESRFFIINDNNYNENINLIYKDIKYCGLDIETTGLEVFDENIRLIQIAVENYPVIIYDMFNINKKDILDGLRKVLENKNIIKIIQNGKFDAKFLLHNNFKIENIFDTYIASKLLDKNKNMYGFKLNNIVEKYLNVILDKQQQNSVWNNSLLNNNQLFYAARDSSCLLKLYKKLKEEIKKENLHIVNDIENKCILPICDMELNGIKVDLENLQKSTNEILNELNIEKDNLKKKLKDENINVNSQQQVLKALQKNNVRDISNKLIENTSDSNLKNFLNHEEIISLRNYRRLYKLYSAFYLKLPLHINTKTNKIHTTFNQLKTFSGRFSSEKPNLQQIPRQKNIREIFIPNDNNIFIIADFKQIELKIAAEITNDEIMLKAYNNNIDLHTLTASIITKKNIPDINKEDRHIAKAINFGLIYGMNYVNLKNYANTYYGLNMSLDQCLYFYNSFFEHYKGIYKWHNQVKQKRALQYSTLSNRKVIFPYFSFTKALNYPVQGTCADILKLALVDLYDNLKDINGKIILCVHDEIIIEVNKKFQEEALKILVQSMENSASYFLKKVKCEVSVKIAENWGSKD
Readout: % inhibition Apol 90' (%)

                                   molecule                readout  units_label  numeric_readout
0  CC(C)CCNC(=O)c1cnn2c(O)cc(CSc3ccc(Cl)cc3)nc12  % inhibition Apol 90'            %          89.1904
1  COc1ccccc1C1CC(=O)Oc2cc3c(cc21)OCO3 (stereo not drawn)  % inhibition Apol 90'            %          81.0345
2  COC(=O)c1sc(-c2ccc(C(C)(C)C)cc2)cc1NC(=O)CCC(=O)O  % inhibition Apol 90'            %          91.7617

The values you see were collected from paper PMC9090415.
